Target System: PI3Kγ (Homo sapiens, UniProt P48736)
Construct: purchased Millipore Ltd (Billerica, Mass.)
Sequence (P48736 whole entry): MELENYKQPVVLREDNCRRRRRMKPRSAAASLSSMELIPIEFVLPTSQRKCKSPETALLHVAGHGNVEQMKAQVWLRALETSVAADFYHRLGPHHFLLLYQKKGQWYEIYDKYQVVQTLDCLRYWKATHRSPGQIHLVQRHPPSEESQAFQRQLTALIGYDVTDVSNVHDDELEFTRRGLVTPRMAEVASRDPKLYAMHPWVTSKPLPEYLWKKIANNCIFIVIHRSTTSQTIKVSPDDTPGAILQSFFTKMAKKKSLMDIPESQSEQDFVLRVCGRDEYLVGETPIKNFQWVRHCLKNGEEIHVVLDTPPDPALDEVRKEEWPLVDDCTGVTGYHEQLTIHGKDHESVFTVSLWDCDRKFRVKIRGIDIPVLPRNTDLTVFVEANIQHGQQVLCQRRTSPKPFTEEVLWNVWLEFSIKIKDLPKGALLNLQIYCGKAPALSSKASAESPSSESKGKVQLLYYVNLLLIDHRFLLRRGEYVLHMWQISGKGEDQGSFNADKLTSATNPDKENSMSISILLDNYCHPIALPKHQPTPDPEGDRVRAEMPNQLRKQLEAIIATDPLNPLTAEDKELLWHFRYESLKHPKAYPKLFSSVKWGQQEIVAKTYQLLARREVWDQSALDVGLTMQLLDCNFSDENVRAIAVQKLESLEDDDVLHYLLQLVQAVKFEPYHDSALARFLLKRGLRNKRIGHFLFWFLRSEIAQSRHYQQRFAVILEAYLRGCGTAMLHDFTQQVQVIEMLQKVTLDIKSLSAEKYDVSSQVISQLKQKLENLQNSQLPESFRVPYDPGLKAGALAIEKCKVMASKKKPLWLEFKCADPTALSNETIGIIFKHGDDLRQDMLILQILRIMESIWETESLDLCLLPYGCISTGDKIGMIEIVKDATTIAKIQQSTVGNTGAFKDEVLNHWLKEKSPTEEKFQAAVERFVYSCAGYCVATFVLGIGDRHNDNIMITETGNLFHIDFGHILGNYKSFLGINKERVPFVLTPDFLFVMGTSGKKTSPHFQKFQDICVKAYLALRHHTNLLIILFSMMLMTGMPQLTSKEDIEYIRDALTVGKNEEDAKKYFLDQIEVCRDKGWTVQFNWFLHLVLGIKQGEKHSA
Method Summary: In vitro determination of the PI3K enzyme inhibitory activity in the cell free assay (ADP-Glo Kinase Assay), PI3Kγ
Type: biochemical
Study Conditions: ATP 30 μM, read-out: PI3K gamma inhibition
Exercise: state measured IC50 for each of the compounds provided.

Query block: Recorded IC50 for CC(c1cc2ccccn2c1-c1ccccn1)n1nc(-c2cncc(O)c2)c2c(N)ncnc21 (centres unmarked) [Example 69] , please?
Result block: 10 to 1000 nM

Query block: Recorded IC50 for Cc1ccccc1-c1c(Cn2cnc3c(N)ncnc32)cc2ccccn12 [Example 7] , please?
Result block: > 1000 nM

Query block: Recorded IC50 for CC(c1cc2ccccn2c1-c1ccccn1)n1nc(-c2cccc(NS(C)(=O)=O)c2)c2c(N)ncnc21 (centres unmarked) [Example 67] , please?
Result block: > 1000 nM

Query block: Recorded IC50 for CC(c1cc2ccccn2c1-c1ccccn1)n1nc(C#CCO)c2c(N)ncnc21 (centres unmarked) [Example 102] , please?
Result block: > 1000 nM

Query block: Recorded IC50 for CC(Nc1ncnc(N)c1C(F)(F)F)c1cc2ccccn2c1-c1ccccn1 (centres unmarked) [Example 49] , please?
Result block: > 1000 nM

Please go through the list and note IC50 for each compound.
1. CC(Nc1ncnc(N)c1C#N)c1cc2ccccn2c1-c1ccccn1 (centres unmarked) [Example 33]
2. CC(c1cc2ccccn2c1-c1ccccn1)n1nc(-c2cccc(S(N)(=O)=O)c2)c2c(N)ncnc21 (centres unmarked) [Example 73]
3. Cc1cc(-c2c(C(C)n3nc(-c4cncc(O)c4)c4c(N)ncnc43)cc3ccccn23)ccn1 (centres unmarked) [Example 107]

Result block:
1. > 1000 nM
2. > 1000 nM
3. 10 to 1000 nM

----------
Target System: PI3Kγ (Homo sapiens)
Construct: purchased Millipore Ltd (Billerica, Mass.)
Method Summary: In vitro determination of the PI3K enzyme inhibitory activity in the cell free assay (ADP-Glo Kinase Assay), PI3Kγ
Assay type: biochemical
Study Conditions: ATP 30 μM, read-out: PI3K gamma inhibition
pIC50: −log10 of the molar value.
Exercise: state measured pIC50 for each of the compounds provided.

Example entries begin here.
Query block: Recorded pIC50 for CC(c1cc2ccccn2c1CN1CCC2(CCN(C)CC2)CC1)n1nc(-c2cc(O)cc(F)c2)c2c(N)ncnc21 (stereo not shown) [Example 143] , please?
Result block: 6.00 to 8.00

Query block: Recorded pIC50 for Nc1ncnc2c1ncn2Cc1cc2ccccn2c1-c1ccccn1 [Example 3] , please?
Result block: < 6.00

Query block: Recorded pIC50 for CC(c1cc2ccccn2c1-c1ccccn1)n1nc(-c2cc(O)cc(C(F)(F)F)c2)c2c(N)ncnc21 (stereo not shown) [Example 65] , please?
Result block: 6.00 to 8.00

Please go through the list and note pIC50 for each compound.
1. CC(c1cc2ccccn2c1-c1ccc(OC2CCN(C)CC2)nn1)n1nc(-c2cc(O)cc(F)c2)c2c(N)ncnc21 (stereo not shown) [Example 139]
2. c1ccn2cc(CNc3ncnc4[nH]cnc34)cc2c1 [Example 21]

Result block:
1: < 6.00; 2: < 6.00

Please go through the list and note pIC50 for each compound.
1. C[C@@H](c1cc2ccccn2c1-c1ccccn1)n1nc(-c2cc(O)cc(F)c2)c2c(N)ncnc21 (single isomer, unassigned) [Example 81]
2. CC(c1cc2ccccn2c1-c1ccccn1)n1nc(-c2cc(F)cc(S(N)(=O)=O)c2)c2c(N)ncnc21 (stereo not shown) [Example 75]
3. CC(NC(=O)c1nccnc1N)c1cc2ccccn2c1-c1ccccn1 (stereo not shown) [Example 54]

Result block:
1: < 6.00; 2: < 6.00; 3: < 6.00

Please go through the list and note pIC50 for each compound.
1. C[C@H](c1cc2ccccn2c1-c1cccc(CN(C)C)c1)n1nc(-c2cc(O)cc(F)c2)c2c(N)ncnc21 (single isomer, unassigned) [Example 93b]
2. N#Cc1c(N)ncnc1NCc1cc2ccccn2c1 [Example 31]
3. CC(c1cc2ccccn2c1-c1ccccc1F)n1nc(-c2cc(O)cc(F)c2)c2c(N)ncnc21 (stereo not shown) [Example 86]
4. CC(=O)Nc1cccc(-c2nn(C(C)c3cc4ccccn4c3-c3ccccn3)c3ncnc(N)c23)c1 (stereo not shown) [Example 63]
5. Nc1nccnc1C(=O)NCc1cn2ccccc2c1-c1ccccn1 [Example 55]
6. CC(c1cc2ccccn2c1-c1ccccc1C#N)n1nc(-c2cc(O)cc(F)c2)c2c(N)ncnc21 (stereo not shown) [Example 123]

Result block:
1: < 6.00; 2: < 6.00; 3: 6.00 to 8.00; 4: < 6.00; 5: < 6.00; 6: < 6.00

Please go through the list and note pIC50 for each compound.
1. CC(c1cc2ccccn2c1-c1ccn(CCN2CCOCC2)n1)n1nc(-c2cc(O)cc(F)c2)c2c(N)ncnc21 (stereo not shown) [Example 150]
2. CC(c1cc2ccccn2c1-c1ccccn1)n1nc(-c2cccnc2)c2c(N)ncnc21 (stereo not shown) [Example 68]

Result block:
1: 6.00 to 8.00; 2: < 6.00
